# target.of.assay: PTHR-delNt (human) (UniProt Q03431)
# Sequence (Q03431 185-593, form in doubt): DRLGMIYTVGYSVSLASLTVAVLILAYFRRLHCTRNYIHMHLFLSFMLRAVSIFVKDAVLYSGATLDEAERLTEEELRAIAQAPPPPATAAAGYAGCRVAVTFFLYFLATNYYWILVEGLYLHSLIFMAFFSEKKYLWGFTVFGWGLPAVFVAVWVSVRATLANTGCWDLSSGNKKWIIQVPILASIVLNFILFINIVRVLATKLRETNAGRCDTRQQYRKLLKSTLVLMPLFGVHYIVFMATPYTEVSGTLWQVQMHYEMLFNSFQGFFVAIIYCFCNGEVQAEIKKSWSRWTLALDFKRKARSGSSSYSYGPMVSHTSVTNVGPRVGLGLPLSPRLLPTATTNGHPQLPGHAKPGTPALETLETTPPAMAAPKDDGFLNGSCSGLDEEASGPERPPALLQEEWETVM
# assay: competition binding, COS-7 membranes, 125I-[Aib1,3,M]PTH(1-15) tracer
Where no end group is shown, it is not given here.
Examples of binders with documented fold reduction in binding affinity vs [Ala^1,Arg^19]PTH(1-31)NH2 follow.

# binder, value.reported
rows = [
    ("AVSEIQLMHNLGKHLNSMRRVEWLRKKEQDV-NH2 [[Ala^1,Arg^19]hPTH(1-31)NH2 Leu^28→Glu]", "< 3 fold"),
]

Data request: Return reported fold reduction in binding affinity vs [Ala^1,Arg^19]PTH(1-31)NH2; argument: AVSEIQLMHNLGKHLNSMERVEWLRKKLQDV-NH2 [[Ala^1,Arg^19]hPTH(1-31)NH2 Arg^19→Glu]
Data returned: 50 fold
